test: Plasma pharmacokinetic of MIV-701 after single and repeated oral administration of MIV-701 besylate salt in healthy cats; assay type: in vivo; settings: cat, plasma MIV-701, oral 2 mg/kg once daily, Day 13 (repeated)
Where a name gives a salt, the structure may show the parent alone.
measuredParameter: Cmax at 312 h
State the value with its unit after it.

(Q) Requested read-out: Cmax at 312 h. Entry: CC(C)C[C@H](NC(=O)c1ccc(-c2csc(N3CCN(C)CC3)n2)cc1)C(=O)N1C[C@H](F)[C@H]2OCC(O)(O)[C@H]21 [MIV-701 besylate salt]
(A) 141 nM

---

assay: Plasma pharmacokinetic of MIV-701 after single and repeated oral administration of MIV-701 besylate salt in healthy cats; assay type: in vivo; details: cat, plasma MIV-701, oral 10 mg/kg once daily, Day 13 (repeated), read-out: AUC(0-tfinal) (converted)
Where a name gives a salt, the structure may show the parent alone.
measuredParameter: AUC(0-t) at 312 h (µM·h)
Write the value in µM·h as a bare number.

(Q) Name the recorded AUC(0-t) at 312 h for CC(C)C[C@H](NC(=O)c1ccc(-c2csc(N3CCN(C)CC3)n2)cc1)C(=O)N1C[C@H](F)[C@H]2OCC(O)(O)[C@H]21 [MIV-701 besylate salt] .
(A) 5.07

---

assay: Plasma pharmacokinetic of MIV-701 after single and repeated oral administration of MIV-701 besylate salt in healthy beagle dogs; type: in vivo; details: dog, plasma MIV-701, oral 100 mg/kg once daily, Day 13 (repeated), read-out: AUC(0-tfinal) (converted)
Structures can show the parent of a compound that is named as a salt.
measuredParameter: AUC(0-t) at 312 h
Give your result as the value with the unit written after it.

(Q) Given the entry CC(C)C[C@H](NC(=O)c1ccc(-c2csc(N3CCN(C)CC3)n2)cc1)C(=O)N1C[C@H](F)[C@H]2OCC(O)(O)[C@H]21 [MIV-701 besylate salt] , report its measured AUC(0-t) at 312 h.
(A) 20.7 µM·h

---

assay: Plasma pharmacokinetic of MIV-701 after single and repeated oral administration of MIV-701 besylate salt in healthy beagle dogs; assay type: in vivo; details: dog, plasma MIV-701, oral 10 mg/kg once daily, Day 13 (repeated), read-out: T1/2 elimination (converted)
Where a name gives a salt, the structure may show the parent alone.
measuredParameter: half-life at 312 h (h)
Express the result in h but write the number alone.

(Q) Look at this compound and give its reported half-life at 312 h. CC(C)C[C@H](NC(=O)c1ccc(-c2csc(N3CCN(C)CC3)n2)cc1)C(=O)N1C[C@H](F)[C@H]2OCC(O)(O)[C@H]21 [MIV-701 besylate salt]
(A) 4.9

---

Assay: Plasma pharmacokinetic of MIV-701 after single and repeated oral administration of MIV-701 besylate salt in healthy cats
Assay type: in vivo
Conditions: cat, plasma MIV-701, oral 2 mg/kg, Day 0 (single)
Description: MIV-701 besylate salt was administered once daily for 14 days to 4 healthy cats at three increasing doses: 2 mg/kg, 10 mg/kg and 50 mg/kg. The three doses were consecutively administered for 14 days with a >5-day washout period between two dose levels. […] A calibration curve (9 points, 3 to 30 000 nM) was obtained by spiking plasma samples from naive cats with appropriate quantities of Compound I. […]
Structures can show the parent of a compound that is named as a salt.
measuredParameter: Cmax
Write your answer as a measured quantity: the number, then the unit.

(Q) Fill in: Cmax of CC(C)C[C@H](NC(=O)c1ccc(-c2csc(N3CCN(C)CC3)n2)cc1)C(=O)N1C[C@H](F)[C@H]2OCC(O)(O)[C@H]21 [MIV-701 besylate salt] is ___
(A) 122 nM
